# System: M14 melanoma
# test description: NCI-60 one-dose screen, 48 h (100 = growth as untreated, 0 = no growth, -100 = all killed)
# assay context: 10 µM unless noted
This is part of a sample that, as a whole, favours compounds with a hit. Of some 83,000 tested, about 20% had one in any assay. Activity calls are given as the source filed them. Rule for the calls: active = growth percent below 10; inactive = the rest.
readout label: growth

Reference set (3 entries):
| compound | growth |
| --- | --- |
| Clc1ccc(C(/C=C/c2sc(Cl)nc2Cl)=N/Nc2cc(Cl)cc(Cl)c2)cc1 | 107% (inactive) |
| CN(C)CCS(=O)(=O)Nc1cc(-c2ccc3ncc(C#N)c(Nc4ccc(F)c(Cl)c4)c3c2)cnc1Cl | -40.4% (active) |
| C#C[C@]1(O)CC[C@H]2[C@@H]3CC=C4c5sc(Nc6cc(F)ccc6F)nc5CC[C@]4(C)[C@H]3CC[C@@]21C | -22.1% (active) |

Identify the reported growth for the following entry. CCOc1cccc(NC2=C(Br)C(=O)C(C)=C(C)C2=O)c1
87.1% (inactive)

Identify the reported growth for the following entry. O=C(Nc1ccc(I)cc1F)c1cc(I)ccc1O
5.74% (active)

Identify the reported growth for the following entry. COc1cc(CNS(=O)(=O)c2ccc(C)cc2)ccc1OCc1cn(-c2ccccc2)nn1
99.2% (inactive)
